System under test: T1, Human transferrin receptor 1 (TfR), avi-tagged, biotinylated (human, UniProt P02786 101-760)
T1 construct: also called biotinylated TfR
T1 sequence (P02786 101-760): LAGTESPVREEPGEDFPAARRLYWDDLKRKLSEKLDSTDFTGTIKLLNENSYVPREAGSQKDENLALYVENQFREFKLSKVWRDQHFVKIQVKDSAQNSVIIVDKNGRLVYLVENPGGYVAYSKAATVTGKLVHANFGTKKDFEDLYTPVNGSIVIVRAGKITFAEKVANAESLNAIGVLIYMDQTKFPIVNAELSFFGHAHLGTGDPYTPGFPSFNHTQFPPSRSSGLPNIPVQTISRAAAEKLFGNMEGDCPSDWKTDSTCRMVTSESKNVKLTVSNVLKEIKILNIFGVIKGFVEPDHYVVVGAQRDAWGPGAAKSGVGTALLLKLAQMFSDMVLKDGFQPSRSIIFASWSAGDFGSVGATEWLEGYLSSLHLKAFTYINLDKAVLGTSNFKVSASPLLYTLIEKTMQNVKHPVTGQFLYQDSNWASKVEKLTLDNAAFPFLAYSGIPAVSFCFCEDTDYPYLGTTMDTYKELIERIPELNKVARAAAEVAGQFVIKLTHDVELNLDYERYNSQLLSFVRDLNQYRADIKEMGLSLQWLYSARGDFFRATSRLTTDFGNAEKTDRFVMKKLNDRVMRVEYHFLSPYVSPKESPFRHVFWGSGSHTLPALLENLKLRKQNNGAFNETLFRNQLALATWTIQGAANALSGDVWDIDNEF
Test details: flow cytometry on cells; yeast surface display titration; varied TfR concentration, normalized MFU fitted non-linearly, averaged from three experiments; apparent Kd
Assay setup: one partner purified
Readout kind: Kd (nM)

• TB14.3A T78I (S4.4), yeast surface displayed (designed binder, biotinylated) MEKRFYVLLIIVEDRKKAYRQVNELLHNFSEYILLRMGQDHRERYQSTIALVLKVDNDAIGALSGKLGQISGVKVMTIPEKRGSLE = 305
